- assay.text: Madin-Darby Canine Kidney Cells (MDCK) permeability assay
- Type: in vitro ADME
- assay.conditions: dog, apparent permeability, apical to basolateral
measured.attribute: Papp A→B at 2.5 h, 2 μM (×10⁻⁶ cm/s)
Please give a number only; it is taken to be in ×10⁻⁶ cm/s.

**Q:** Report Papp A→B at 2.5 h, 2 μM for Cc1cnc(C(=O)N[C@H]2CC[C@H]([C@H](N)C(=O)N3CCCC3)CC2)cn1 [reference compound] please.
**A:** 0.7

**Q:** For the molecule N[C@H](C(=O)N1CCCC1)[C@H]1CC[C@H](NC(=O)c2nccnc2NCCc2ccccc2)CC1 [Example 27] , what Papp A→B at 2.5 h, 2 μM is on record?
**A:** 6.2

**Q:** Which Papp A→B at 2.5 h, 2 μM value is on record for Nc1nccnc1C(=O)N[C@H]1CC[C@H]([C@H](N)C(=O)N2CCCC2)CC1 [Example 18] ?
**A:** 4.8

**Q:** Consider the molecule shown here: N[C@H](C(=O)N1CCCC1)[C@H]1CC[C@H](NC(=O)c2cnccn2)CC1 [reference compound] What is its recorded Papp A→B at 2.5 h, 2 μM?
**A:** 1.1

====

- subject.of.test: DPP-IV (Homo sapiens)
- Construct: purchased Enzyme Systems Products SPE-01
- Sequence (P27487 whole entry, species assumed): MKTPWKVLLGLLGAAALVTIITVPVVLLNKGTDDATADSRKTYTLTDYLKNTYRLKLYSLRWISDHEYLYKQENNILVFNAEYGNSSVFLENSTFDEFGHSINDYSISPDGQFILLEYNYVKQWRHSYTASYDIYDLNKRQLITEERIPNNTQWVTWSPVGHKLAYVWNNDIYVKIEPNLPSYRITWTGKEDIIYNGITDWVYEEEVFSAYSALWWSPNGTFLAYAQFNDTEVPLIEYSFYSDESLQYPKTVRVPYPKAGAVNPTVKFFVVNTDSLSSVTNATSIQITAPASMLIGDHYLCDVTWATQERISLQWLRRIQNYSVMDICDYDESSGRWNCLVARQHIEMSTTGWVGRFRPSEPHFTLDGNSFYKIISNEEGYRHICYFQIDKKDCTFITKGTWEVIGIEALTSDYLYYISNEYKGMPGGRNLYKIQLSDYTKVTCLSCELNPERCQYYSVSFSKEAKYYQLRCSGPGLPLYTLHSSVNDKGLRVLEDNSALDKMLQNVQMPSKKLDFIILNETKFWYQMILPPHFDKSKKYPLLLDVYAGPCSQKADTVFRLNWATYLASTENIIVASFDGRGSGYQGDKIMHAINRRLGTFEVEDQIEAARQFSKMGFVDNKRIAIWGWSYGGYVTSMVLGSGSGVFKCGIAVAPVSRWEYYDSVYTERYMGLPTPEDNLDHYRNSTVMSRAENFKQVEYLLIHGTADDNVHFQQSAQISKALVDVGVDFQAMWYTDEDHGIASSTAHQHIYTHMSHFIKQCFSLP
- assay.text: In vitro assay for dipeptidyl peptidase inhibition
- Type: biochemical
- assay.conditions: IC50 (concentration of test compound required for 50% inhibition), hydrochloride salts; Gly-Pro-4-methoxy B naphthylamide substrate; overnight at 37° C.
measured.attribute: IC50

**Q:** Please give the measured IC50 for this molecule: CN(CC(=O)N[C@H]1CC[C@H]([C@H](N)C(=O)N2CCC(F)(F)C2)CC1)C(=O)Oc1ccccc1
**A:** ≤ 100 nM

====

- subject.of.test: DPP-IV (Homo sapiens)
- Construct: purchased Enzyme Systems Products SPE-01
- assay.text: In vitro assay for dipeptidyl peptidase inhibition
- Assay type: biochemical
- assay.conditions: hydrochloride salts; Gly-Pro-4-methoxy B naphthylamide substrate; overnight at 37° C.; read-out: IC50 (concentration of test compound required for 50% inhibition)
pIC50: −log10 of the molar value.
Provide the recorded pIC50 for the entries that follow.

**Q:** Please report the recorded pIC50 for N#C[C@@H]1CCCN1C(=O)[C@@H](N)[C@H]1CC[C@H](NC(=O)c2cc3ccsc3cn2)CC1 .
**A:** ≥ 7.00

**Q:** Please give the measured pIC50 for this molecule: NC(C(=O)N1CCCC1)C1CCC(NC(=O)C2CC(O)CN2)CC1 (centres unmarked)
**A:** 6.30 to 7.00

**Q:** Given N[C@H](C(=O)N1CCCC1)[C@H]1CC[C@@H](NC(=O)CNC(=O)OCc2ccccc2)CC1 , state its recorded pIC50.
**A:** < 6.30

**Q:** Would you mind telling me what pIC50 value was observed for N[C@H](C(=O)N1CCCC1)[C@H]1CC[C@@H](NC(=O)CNC(=O)c2ccccc2)CC1 ?
**A:** < 6.30

**Q:** So what's the measured pIC50 for this one? N[C@H](C(=O)N1CCCC1)[C@H]1CC[C@H](NC(=O)[C@@H]2C[C@@H](O)CN2C(=O)OCc2ccccc2)CC1
**A:** ≥ 7.00

**Q:** Suppose we examine the molecule Nc1nccnc1C(=O)N[C@H]1CC[C@H]([C@H](N)C(=O)N2CCC(F)(F)C2)CC1 ; what pIC50 value has been reported?
**A:** ≥ 7.00

**Q:** Fill in the blank: the reported pIC50 of NC(=O)c1nccnc1C(=O)N[C@H]1CC[C@H]([C@H](N)C(=O)N2CCCC2)CC1 is ____.
**A:** ≥ 7.00

**Q:** I'd like to know its pIC50. The molecule in question is N[C@H](C(=O)N1CCC(F)(F)C1)[C@H]1CC[C@H](NC(=O)[C@@H]2CNC(=O)N2C(=O)OCc2ccccc2)CC1
**A:** ≥ 7.00

**Q:** Recorded pIC50 of N#C[C@@H]1CCCN1C(=O)[C@@H](N)[C@H]1CC[C@H](NC(=O)c2nccnc2N)CC1 , please.
**A:** ≥ 7.00

**Q:** Give the measured pIC50 of Cc1cc(C)n2cnc(C(=O)N[C@H]3CC[C@H]([C@H](N)C(=O)N4CCC[C@H]4C#N)CC3)cc12 .
**A:** ≥ 7.00

**Q:** Record request: pIC50 value, item N#C[C@@H]1CCCN1C(=O)[C@@H](N)[C@H]1CC[C@H](NC(=O)c2cc3cccn3cn2)CC1
**A:** ≥ 7.00

**Q:** Can you share its pIC50? I mean this molecule: N#C[C@@H]1CCCN1C(=O)[C@@H](N)[C@H]1CC[C@H](NC(=O)c2cc3occc3cn2)CC1
**A:** ≥ 7.00

**Q:** // query pIC50 value for entry N[C@H](C(=O)N1CCCC1)[C@H]1CC[C@H](NC(=O)[C@@H]2COC(=O)N2Cc2ccccc2)CC1
**A:** ≥ 7.00

**Q:** Would you kindly share the measured pIC50 for N[C@H](C(=O)N1CCCC1)[C@H]1CC[C@@H](NC(=O)[C@@H]2CCCN2C(=O)OCc2ccccc2)CC1 ?
**A:** < 6.30

**Q:** Need pIC50, item Nc1nccnc1C(=O)N[C@H]1CC[C@H]([C@H](N)C(=O)N2CCCC2)CC1
**A:** ≥ 7.00

**Q:** Query (molecule): Cn1ccc2cc(C(=O)N[C@H]3CC[C@H]([C@H](N)C(=O)N4CCC[C@H]4C#N)CC3)ncc21 ; field requested: pIC50
**A:** ≥ 7.00

**Q:** Reported pIC50 for N[C@H](C(=O)N1CCCC1)[C@H]1CC[C@@H](NC(=O)[C@@H]2COCN2C(=O)OCc2ccccc2)CC1 : what is it?
**A:** < 6.30

**Q:** Entry N[C@H](C(=O)N1CCCC1)[C@H]1CC[C@H](NC(=O)[C@@H]2CNC(=O)N2C(=O)OCc2ccccc2)CC1 has what pIC50?
**A:** ≥ 7.00

**Q:** Which pIC50 is listed for N[C@H](C(=O)N1CCCC1)[C@H]1CC[C@@H](NC(=O)[C@H]2COCN2C(=O)OCc2ccccc2)CC1 ?
**A:** 6.30 to 7.00

**Q:** Item N[C@H](C(=O)N1CCSC1)[C@H]1CC[C@H](N2Cc3ncccc3C2=O)CC1 has what recorded pIC50?
**A:** ≥ 7.00

**Q:** Given the entry CN(CC(=O)N[C@H]1CC[C@H]([C@H](N)C(=O)N2CCC[C@H]2C#N)CC1)C(=O)OCc1ccccc1 , report its measured pIC50.
**A:** ≥ 7.00

**Q:** Given the entry Nc1ncccc1C(=O)N[C@H]1CC[C@H]([C@H](N)C(=O)N2CCCC2)CC1 , report its measured pIC50.
**A:** ≥ 7.00

**Q:** Need pIC50, item CC1(C)COc2cnc(C(=O)N[C@H]3CC[C@H]([C@H](N)C(=O)N4CCC[C@H]4C#N)CC3)cc21
**A:** ≥ 7.00

**Q:** Dear colleague, I am looking for the recorded pIC50 of the following molecule: N[C@H](C(=O)N1CCCC1)[C@H]1CC[C@H](NC(=O)[C@H]2CCC(=O)N2C(=O)OCc2ccccc2)CC1
**A:** ≥ 7.00

**Q:** So what does the record say about pIC50 for N[C@H](C(=O)N1CCC(F)(F)C1)[C@H]1CC[C@H](NC(=O)[C@@H]2C[C@@H](O)CN2C(=O)OCc2ccccc2)CC1 ?
**A:** ≥ 7.00

**Q:** # query: pIC50 of entry Cc1nn(C)c(C(=O)N[C@H]2CC[C@H]([C@H](N)C(=O)N3CCCC3)CC2)c1N
**A:** ≥ 7.00

**Q:** Return reported pIC50; argument: N[C@H](C(=O)N1CCCC1)[C@H]1CC[C@@H](NC(=O)[C@@H]2CNC(=O)N2C(=O)OCc2ccccc2)CC1
**A:** < 6.30

**Q:** Would you kindly share the measured pIC50 for N[C@H](C(=O)N1CCCC1)[C@H]1CC[C@H](N2C(=O)O[C@@H](c3ccccc3)C2=O)CC1 ?
**A:** 6.30 to 7.00

**Q:** Value lookup for pIC50; key = Nc1ncccc1C(=O)N[C@H]1CC[C@H]([C@H](N)C(=O)N2CCSC2)CC1
**A:** ≥ 7.00
